Origin of measurements: paper PMC3351444

The following compounds are shown together with reported EC50 values.
biological target: human CMKLR1 (Homo sapiens, UniProt Q99788); construct: host or cells: HEK293A (Invitrogen), stably expressing human Gα15; test: Ca2+ mobilization (CellLux imaging) agonist assay in HEK293A cells expressing CMKLR1 and Gα15; type: cell-based; details: Ca2+ mobilization, CMKLR1; decimal comma; NR where no EC50 is given; read-out: EC50
Sequence (Q99788 whole entry): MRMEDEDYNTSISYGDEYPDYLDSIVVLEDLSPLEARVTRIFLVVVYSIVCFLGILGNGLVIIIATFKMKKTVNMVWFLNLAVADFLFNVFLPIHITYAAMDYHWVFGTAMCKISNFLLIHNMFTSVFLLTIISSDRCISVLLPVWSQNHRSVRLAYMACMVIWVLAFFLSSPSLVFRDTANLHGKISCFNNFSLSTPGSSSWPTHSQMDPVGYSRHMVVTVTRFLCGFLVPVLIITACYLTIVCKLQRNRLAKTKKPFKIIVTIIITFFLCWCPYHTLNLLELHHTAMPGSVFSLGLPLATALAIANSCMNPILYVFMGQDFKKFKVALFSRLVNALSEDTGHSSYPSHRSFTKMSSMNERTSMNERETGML
Square brackets hold non-standard residues; d marks the D form. Peptide text beside a SMILES is read from it.
Report only the number, with the unit µM understood.

CC(C)[C@H](NC(=O)[C@@H](N)Cc1ccc(O)cc1)C(=O)N1CCC[C@H]1C(=O)NCC(=O)N[C@@H](CCC(N)=O)C(=O)N[C@@H](Cc1ccccc1)C(=O)N[C@@H](C)C(=O)N[C@@H](Cc1ccccc1)C(=O)N[C@H](CO)C(=O)O [compound 90] (H-YVPGQFAF[dS]-OH; N-terminus assumed) = 0.05
C[C@H](NC(=O)[C@H](Cc1ccccc1)NC(=O)[C@H](C)NC(=O)[C@@H](N)Cc1ccccc1)C(=O)N[C@@H](Cc1ccccc1)C(=O)N[C@H](CO)C(=O)N[C@@H](Cc1ccccc1)C(=O)N[C@@H](C)C(=O)N[C@@H](Cc1ccc(O)cc1)C(=O)O [compound 117] (H-FAFAF[dS]FAY-OH; N-terminus assumed) = 4.45
CC(C)C[C@H](NC(=O)[C@@H]1CCCN1C(=O)[C@@H](NC(=O)[C@H](Cc1ccc(O)cc1)NC(=O)[C@@H]1CCCN1)C(C)C)C(=O)N[C@H](CC(=O)O)C(=O)N[C@@H](Cc1ccc(O)cc1)C(=O)N[C@@H](C)C(=O)N[C@@H](Cc1ccccc1)C(=O)O [compound 111] (H-PYVPL[dD]YAF-OH; N-terminus assumed) = 1.94
CC(C)C[C@@H](NC(=O)[C@H](Cc1c[nH]cn1)NC(=O)[C@H](N)CO)C(=O)NCC(=O)N[C@@H](CCC(N)=O)C(=O)N[C@@H](Cc1ccc(O)cc1)C(=O)N[C@@H](C)C(=O)N[C@H](CC(=O)O)C(=O)N[C@@H](CO)C(=O)O [compound 96] (H-[dS]H[dL]GQYA[dD]S-OH; N-terminus assumed) = 0.0905

Req: Need EC50 of CC(C)C[C@H](NC(=O)[C@@H](N)CCC(N)=O)C(=O)N1CCC[C@H]1C(=O)NCC(=O)N[C@@H](CCC(N)=O)C(=O)N[C@@H](Cc1ccccc1)C(=O)N[C@@H](C)C(=O)N[C@H](Cc1ccccc1)C(=O)N[C@@H](Cc1ccccc1)C(=O)O [compound 71] (H-QLPGQFA[dF]F-OH; N-terminus assumed) , thanks.
Resp: 2.46

Req: Subsequent entry: CC[C@@H](C)[C@@H](NC(=O)[C@H](Cc1ccccc1)NC(=O)[C@H](CCC(N)=O)NC(=O)CNC(=O)[C@@H]1CCCN1C(=O)[C@H](Cc1ccccc1)NC(=O)[C@H](N)Cc1c[nH]c2ccccc12)C(=O)N[C@@H](Cc1ccccc1)C(=O)N[C@@H](CO)C(N)=O [compound 18] (H-[dW]FPGQF[dI]FS-NH2; N-terminus assumed)
Resp: 7.13
